# Tested on: A549 lung cell carcinoma
# EXPERIMENT_SUMMARY: Relative colony forming efficiency after antisense treatment (Table 13)
# Assay type: cell-based, human
# CONDITION_CONTEXT: 0.2 μM antisense oligodeoxyribonucleotide phosphorothioate; A549 cells; averages of 2-8 determinations
Strand notation (5' to 3'): a small letter for the sugar, then the base; units joined by * are phosphorothioate-linked, units joined directly phosphodiester-linked; [ ] holds rarer units or linkages, { } end groups; capitals alone tell only the bases. d = 2'-deoxy (DNA)
ENDPOINT: Reduced relative colony forming efficiency, expressed as % inhibition, A549 (%)
Please respond with the number in % and leave the unit unwritten.

Give A549 lung cell carcinoma Reduced relative colony forming efficiency, expressed as % inhibition, A549 for the following substance: GCACATCTTCAGTTCATTTA (DNA, all phosphorothioate, methylation of C not given here) [AS-II-1362-20]
83.9

Check A549 lung cell carcinoma data and give Reduced relative colony forming efficiency, expressed as % inhibition, A549 for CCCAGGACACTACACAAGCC (antisense; DNA, all phosphorothioate, methylation of C not given here) [AS-II-2026-20] .
88.81

Determine reported Reduced relative colony forming efficiency, expressed as % inhibition, A549 for CsCCCsTCACsTCCsAGCsAGCsCTsT (antisense dC*dCdCdC*dTdCdAdC*dTdCdC*dAdGdC*dAdGdC*dCdT*dT) [AS-II-109-20] ; test system: A549 lung cell carcinoma.
15.14

Using A549 lung cell carcinoma as the test system, report measured Reduced relative colony forming efficiency, expressed as % inhibition, A549 of TTCTGGCAAAAGGTGATACT (DNA, all phosphorothioate, methylation of C not given here) [AS-II-1538-20] .
90.34

Write down the reported Reduced relative colony forming efficiency, expressed as % inhibition, A549 (system: A549 lung cell carcinoma) of AACCGGAAAAGAAAATGCCT (antisense; DNA, all phosphorothioate, methylation of C not given here) [AS-II-890-20]
81.6

Provide A549 lung cell carcinoma Reduced relative colony forming efficiency, expressed as % inhibition, A549 reading for CTCTCTCCTCCGATGGTTTG (DNA, all phosphorothioate, methylation of C not given here) [AS-II-1040-20] .
85.82

Report value: Reduced relative colony forming efficiency, expressed as % inhibition, A549, system: A549 lung cell carcinoma, substance: TGGCTGTGCTGGTTAAAGGA (DNA, all phosphorothioate, methylation of C not given here) [AS-II-1659-20]
54.7

Provide the reported Reduced relative colony forming efficiency, expressed as % inhibition, A549 (system: A549 lung cell carcinoma) for CGGCGGCGTGTT (dC*dG*dG*dC*dG*dG*dC*dG*dT*dG*dT*dT) [AS-II-288-12]
70.49

// fetch Reduced relative colony forming efficiency, expressed as % inhibition, A549; item: CCTCCTCGGCGGTCCAAAAG (dC*dC*dT*dC*dC*dT*dC*dG*dG*dC*dG*dG*dT*dC*dC*dA*dA*dA*dA*dG; antisense) [AS-II-494-20] ; system: A549 lung cell carcinoma
33.85

Fill in Reduced relative colony forming efficiency, expressed as % inhibition, A549 for TGTAAACCCTCATCTCTGCT (antisense; DNA, all phosphorothioate, methylation of C not given here) [AS-II-981-20] tested with A549 lung cell carcinoma.
74.25

# lookup: A549 lung cell carcinoma Reduced relative colony forming efficiency, expressed as % inhibition, A549, key = GsCGsAAGsCAGsAGCsGAGsCAGCsC (antisense dG*dCdG*dAdAdG*dCdAdG*dAdGdC*dGdAdG*dCdAdGdC*dC) [AS-II-163-20]
37.13

Lab note: A549 lung cell carcinoma assay, enter Reduced relative colony forming efficiency, expressed as % inhibition, A549 for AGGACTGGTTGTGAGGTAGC (DNA, all phosphorothioate, methylation of C not given here) [AS-II-1499-20] here
87.8

Consider the substance GAACATCAGGCAAGCAAAAT (DNA, all phosphorothioate, methylation of C not given here) [AS-II-1006-20] tested on A549 lung cell carcinoma; state its Reduced relative colony forming efficiency, expressed as % inhibition, A549.
61.62

Check A549 lung cell carcinoma data and give Reduced relative colony forming efficiency, expressed as % inhibition, A549 for TATCGCCGCCGTGAGTACAA (DNA, all phosphorothioate, methylation of C not given here) [AS-II-1768-20] .
86.8

Write down the reported Reduced relative colony forming efficiency, expressed as % inhibition, A549 (system: A549 lung cell carcinoma) of TTTTAACTGGCTGTGCTGGT (DNA, all phosphorothioate, methylation of C not given here) [AS-II-1666-20]
54.82

Give Reduced relative colony forming efficiency, expressed as % inhibition, A549 for this entry on A549 lung cell carcinoma: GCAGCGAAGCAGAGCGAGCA (antisense dG*dC*dA*dG*dC*dG*dA*dA*dG*dC*dA*dG*dA*dG*dC*dG*dA*dG*dC*dA) [AS-II-166-20]
81.1

Fetch value of Reduced relative colony forming efficiency, expressed as % inhibition, A549 on A549 lung cell carcinoma for TATCTCTCCTCGGGTTTCAG (dT*dA*dT*dC*dT*dC*dT*dC*dC*dT*dC*dG*dG*dG*dT*dT*dT*dC*dA*dG; antisense) [AS-II-549-20] .
30.57

# return Reduced relative colony forming efficiency, expressed as % inhibition, A549 for CAAATGGGTTCTCTACTCTG (DNA, all phosphorothioate, methylation of C not given here) [AS-II-1217-20] , test system: A549 lung cell carcinoma
91.49

Look up and report measured Reduced relative colony forming efficiency, expressed as % inhibition, A549 (A549 lung cell carcinoma) for the following substance: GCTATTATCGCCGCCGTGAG (DNA, all phosphorothioate, methylation of C not given here) [AS-II-1773-20]
70.11

Would you please give the reported Reduced relative colony forming efficiency, expressed as % inhibition, A549 of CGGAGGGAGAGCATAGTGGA (dC*dG*dG*dA*dG*dG*dG*dA*dG*dA*dG*dC*dA*dT*dA*dG*dT*dG*dG*dA; antisense) [AS-II-189-20] with A549 lung cell carcinoma?
76.57

// output Reduced relative colony forming efficiency, expressed as % inhibition, A549; input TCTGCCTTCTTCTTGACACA (antisense; DNA, all phosphorothioate, methylation of C not given here) [AS-II-798-20] ; system A549 lung cell carcinoma
70.49

Fill in Reduced relative colony forming efficiency, expressed as % inhibition, A549 for AAGCGGCGGGGGTTTTCTCT (dA*dA*dG*dC*dG*dG*dC*dG*dG*dG*dG*dG*dT*dT*dT*dT*dC*dT*dC*dT; antisense) [AS-II-414-20] tested with A549 lung cell carcinoma.
12.44

Report the value of Reduced relative colony forming efficiency, expressed as % inhibition, A549 obtained on A549 lung cell carcinoma for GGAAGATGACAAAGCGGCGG (dG*dG*dA*dA*dG*dA*dT*dG*dA*dC*dA*dA*dA*dG*dC*dG*dG*dC*dG*dG; antisense) [AS-II-425-20] .
57.38

# return Reduced relative colony forming efficiency, expressed as % inhibition, A549 for ATCGCCGCCGTG (DNA, all phosphorothioate, methylation of C not given here) [AS-II-1775-12] , test system: A549 lung cell carcinoma
63.55

Data provenance is patent US7405205B2.
